B1: EHMT1 (parent)
chain: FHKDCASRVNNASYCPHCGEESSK

variants of: B1; assay: protein stability index of a GFP-peptide fusion (GPS, HEK-293T) (PSI 1-6); higher = more stable; conditions: c terminus: a fixed tail appended;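 also: lentivirally expressed fusions sorted by FACS into six bins by GFP to DsRed ratio, PSI derived from sequencing read proportions per bin multiplied by bin number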
observedProperty: protein stability index
Please give the numeric answer without any surrounding text.

Known protein stability index results, listed for orientation:
# sequenceCode, measuredNumber
data = [
    ("FHKDCASRVNNASYCPFCGEESSK [H17F]", 2.96),
    ("FHKDDASRVNNASYCPHCGEESSK [C5D]", 3.19),
    ("FHYDCASRVNNASYCPHCGEESSK [K3Y]", 2.61),
    ("FHKDCASRVNNASYCPHQGEESSK [C18Q]", 3.59),
]

Item under review: FHKDCASRVNNASYNPHCGEESSK [C15N] . Reported protein stability index?
3.88

What about FHKSCASRVNNASYCPHCGEESSK [D4S] ?
3.12

Same for FHKDCASRVNNASYCPHCGEESSM [K24M]
3.26

Try this variant next: FHKDCASRVNAASYCPHCGEESSK [N11A]
2.91

Check FHKDCTSRVNNASYCPHCGEESSK [A6T] too.
3.6

One more variant: FHKDCASKVNNASYCPHCGEESSK [R8K]
3.46

Ok, now FHKDGASRVNNASYCPHCGEESSK [C5G]
2.52

Now the same for FHKDCASRGNNASYCPHCGEESSK [V9G]
4.14

Quick one: FHKDCASRVNNASYCYHCGEESSK [P16Y]
2.58

Same thing, different variant: FHKDCASRVNNASYCPHCGEESRK [S23R]
3.21

Now this one: FHKDCASRVNNASYCPHCGESSSK [E21S]
2.71

Repeat for the following variant: FHKDCASRVNNASYCPHCGEESSL [K24L]
3.43

Same thing, different variant: FHKDCASRVNNASYCPHCGEESQK [S23Q]
3.89

Entry AHKDCASRVNNASYCPHCGEESSK [F1A] please
4.71

And what about the variant FHKDCASRVNNASYCPHCGEESSV [K24V] ?
3.47

Please answer likewise for FHKDCASRVNNALYCPHCGEESSK [S13L]
2.62

What about this variant? FHKDAASRVNNASYCPHCGEESSK [C5A]
2.53

Another: FHKDCASRVNNASYCKHCGEESSK [P16K]
3.57

Values were extracted from the supplement of paper PMC10567573.
